// provenance: patent US11919901B2

Tested on: MV4-11 cells
experimentalProtocol: Cell proliferation assay MV4;11 (CellTiter-Glo, 72 hours)
Type: cell-based
experimentalContext: Homo sapiens; MV4;11 leukemia cell line, 72 hours; read-out: MV4; 11 IC50
readout: IC50

// known answers, use as guide
compoundSmiles	IC50
CC(C)N(CC(F)F)C(=O)c1cc(F)ccc1Oc1cncnc1N1CC2(CCN(C[C@@H]3CC[C@@H](NS(=O)(=O)NC4CC4)CO3)CC2)C1	< 100 nM
CC(C)N(C(=O)c1cc(F)ccc1Oc1cncnc1N1CC2(CCN(C[C@@H]3CC[C@@H](NS(=O)(=O)C4CC4)CO3)CC2)C1)[C@H]1CCOC1	< 100 nM
CC(C)N(C(=O)c1cc(F)ccc1Oc1cncnc1N1CC2(CCN(C[C@@H]3CC[C@@H](NS(=O)(=O)N4CC5(COC5)C4)CO3)CC2)C1)C(C)C	< 100 nM

If you can, please state the reported IC50 value of CCS(=O)(=O)N[C@@H]1CC[C@@H](CN2CCC3(CC2)CN(c2ncncc2Oc2ccc(F)cc2C(=O)N(CCC(F)F)C(C)C)C3)OC1 .
< 100 nM

If you can, please state the reported IC50 value of CCN(C(=O)c1cc(F)ccc1Oc1cncnc1N1CC2(CCN(C[C@@H]3CC[C@@H](NS(=O)(=O)CCOC)CO3)CC2)C1)C(C)C .
< 100 nM

If you can, please state the reported IC50 value of CCNS(=O)(=O)N[C@@H]1CC[C@@H](CN2CCC3(CC2)CN(c2ncnnc2Oc2ccc(F)cc2C(=O)N(C(C)C)C(C)C)C3)OC1 .
< 100 nM

If you can, please state the reported IC50 value of CCN(C(=O)c1cc(F)ccc1Oc1cncnc1N1CC2(CCN(C[C@@H]3CC[C@@H](NC(=O)NCC4CC4)CO3)CC2)C1)C(C)C .
100 to 1000 nM
